# Test system: Staphylococcus aureus SAU.42 (ATCC 29213)
# Type: cell-based
# measurement.conditions: ATCC 29213
assay.readout: Sa42 MIC (mg/L)
Give bare numbers, in mg/L.

Past entries and their recorded results:
CCCOc1ccc(-c2ccc(C(=O)N[C@@H](Cc3c[nH]c4ccccc34)C(=O)N[C@H](CC(N)=O)C(=O)N[C@@H](CC(=O)O)C(=O)N[C@@H]3C(=O)NCC(=O)N[C@@H](CCCN)C(=O)N[C@@H](CC(=O)O)C(=O)N[C@H](C)C(=O)N[C@@H](CC(=O)O)C(=O)NCC(=O)N[C@H](CO)C(=O)N[C@@H]([C@H](C)CC(=O)O)C(=O)N[C@@H](CC(=O)c4ccccc4N)C(=O)O[C@@H]3C)cc2)cc1	0.5
CCCCCC1CCC([C@H]2CC[C@H](C(=O)N[C@@H](Cc3c[nH]c4ccccc34)C(=O)N[C@H](CC(N)=O)C(=O)N[C@@H](CC(=O)O)C(=O)N[C@@H]3C(=O)NCC(=O)N[C@@H](CCCN)C(=O)N[C@@H](CC(=O)O)C(=O)N[C@H](C)C(=O)N[C@@H](CC(=O)O)C(=O)NCC(=O)N[C@H](CO)C(=O)N[C@@H]([C@H](C)CC(=O)O)C(=O)N[C@@H](CC(=O)c4ccccc4N)C(=O)O[C@@H]3C)CC2)CC1 (some centres unmarked)	0.5
CCCCCC1CCC(C(=O)N[C@@H](Cc2c[nH]c3ccccc23)C(=O)N[C@H](CC(N)=O)C(=O)N[C@@H](CC(=O)O)C(=O)N[C@@H]2C(=O)NCC(=O)N[C@@H](CCCN)C(=O)N[C@@H](CC(=O)O)C(=O)N[C@H](C)C(=O)N[C@@H](CC(=O)O)C(=O)NCC(=O)N[C@H](CO)C(=O)N[C@@H]([C@H](C)CC(=O)O)C(=O)N[C@@H](CC(=O)c3ccccc3N)C(=O)O[C@@H]2C)CC1 (some centres unmarked)	0.5
CCCCCCCCCC(C)(C)C(=O)N[C@@H](Cc1c[nH]c2ccccc12)C(=O)N[C@H](CC(N)=O)C(=O)N[C@@H](CC(=O)O)C(=O)N[C@@H]1C(=O)NCC(=O)N[C@@H](CCCN)C(=O)N[C@@H](CC(=O)O)C(=O)N[C@H](C)C(=O)N[C@@H](CC(=O)O)C(=O)NCC(=O)N[C@H](CO)C(=O)N[C@@H]([C@H](C)CC(=O)O)C(=O)N[C@@H](CC(=O)c2ccccc2N)C(=O)O[C@@H]1C	4

Let us examine a further case.
input: Query: Sa42 MIC; subject: C[C@H](CC(=O)O)[C@@H]1NC(=O)[C@@H](CO)NC(=O)CNC(=O)[C@H](CC(=O)O)NC(=O)[C@@H](C)NC(=O)[C@H](CC(=O)O)NC(=O)[C@H](CCCN)NC(=O)CNC(=O)[C@@H](NC(=O)[C@H](CC(=O)O)NC(=O)[C@@H](CC(N)=O)NC(=O)[C@H](Cc2c[nH]c3ccccc23)NC(=O)C2CCC(c3ccc(Cl)cc3)CC2)[C@@H](C)OC(=O)[C@H](CC(=O)c2ccccc2N)NC1=O (some centres unmarked)
output: 0.5

* * *

Kindly supply the reported Sa278 MIC values for the records listed here.
# Test system: Staphylococcus aureus SAU.278, Daptomycin resistant mutant (D10)
# Assay type: cell-based
# measurement.conditions: MHBc with 50 mg/L calcium, 18-20 hours at 37° C.
Please make sure the unit comes right after the number.

Past entries and their recorded results:
CC(C)CCCCCCC(=O)N[C@@H](Cc1c[nH]c2ccccc12)C(=O)N[C@H](CC(N)=O)C(=O)N[C@@H](CC(=O)O)C(=O)N[C@@H]1C(=O)NCC(=O)N[C@@H](CCCN)C(=O)N[C@@H](CC(=O)O)C(=O)N[C@H](C)C(=O)N[C@@H](CC(=O)O)C(=O)NCC(=O)N[C@H](CO)C(=O)N[C@@H]([C@H](C)CC(=O)O)C(=O)N[C@@H](CC(=O)c2ccccc2N)C(=O)O[C@@H]1C [Compound 9]	8 µg/mL
CCCCCCOc1ccc(-c2ccc(C(=O)N[C@@H](Cc3c[nH]c4ccccc34)C(=O)N[C@H](CC(N)=O)C(=O)N[C@@H](CC(=O)O)C(=O)N[C@@H]3C(=O)NCC(=O)N[C@@H](CCCN)C(=O)N[C@@H](CC(=O)O)C(=O)N[C@H](C)C(=O)N[C@@H](CC(=O)O)C(=O)NCC(=O)N[C@H](CO)C(=O)N[C@@H]([C@H](C)CC(=O)O)C(=O)N[C@@H](CC(=O)c4ccccc4N)C(=O)O[C@@H]3C)cc2)cc1 [Compound 62]	0.5 µg/mL

Let us examine a further case.
input: Hello, I am looking for reported Sa278 MIC with Staphylococcus aureus SAU.278, Daptomycin resistant mutant (D10) for C[C@H](CC(=O)O)[C@@H]1NC(=O)[C@@H](CO)NC(=O)CNC(=O)[C@H](CC(=O)O)NC(=O)[C@@H](C)NC(=O)[C@H](CC(=O)O)NC(=O)[C@H](CCCN)NC(=O)CNC(=O)[C@@H](NC(=O)[C@H](CC(=O)O)NC(=O)[C@@H](CC(N)=O)NC(=O)[C@H](Cc2c[nH]c3ccccc23)NC(=O)CCCCCC2CCCCC2)[C@@H](C)OC(=O)[C@H](CC(=O)c2ccccc2N)NC1=O [Compound 26] . Could you help?
output: 2 µg/mL
